experimental_protocol: in vivo
Design: species or system mice
condition_parameters: male, NODSCID 1L2RγKO, mouse, iv, total radioactivity, Blood uptake
In this section, each of the compounds is paired with its reported tissue uptake at 4 h.
Entry rule: numbers only, all in %ID/g.

>>> result("O=C(O)CCC[C@H](NC(=O)N[C@@H](CCCCNC(=O)[C@H](Cc1c2ccccc2cc2ccccc12)NC(=O)[C@H]1CC[C@H](CNC(=O)CN2CCN(CC(=O)O)CCN(CC(=O)O)CCN(CC(=O)O)CC2)CC1)C(=O)O)C(=O)O [177Lu-HTK03149, metal not drawn]")
0.17

Could you now look at the following compound, please?
Report tissue uptake at 4 h for COc1ccc(CCCC(=O)NCC(=O)N[C@@H](CCCCNC(=O)CN2CCN(CC(=O)O)CCN(CC(=O)O)CCN(CC(=O)O)CC2)C(=O)NC[C@H]2CC[C@H](C(=O)N[C@@H](Cc3c4ccccc4cc4ccccc34)C(=O)NCCCC[C@H](NC(=O)N[C@@H](COCC(=O)O)C(=O)O)C(=O)O)CC2)cc1 [177Lu-HTK04028, metal not drawn] please.
12.2
